Recorded values, source patent US20080161305A1.

# SYSTEM_NAME: c-Met (baculovirus expressed human c-Met kinase domain P948-S1343) (Homo sapiens)
# Sequence (P08581 1078-1345 limits assumed): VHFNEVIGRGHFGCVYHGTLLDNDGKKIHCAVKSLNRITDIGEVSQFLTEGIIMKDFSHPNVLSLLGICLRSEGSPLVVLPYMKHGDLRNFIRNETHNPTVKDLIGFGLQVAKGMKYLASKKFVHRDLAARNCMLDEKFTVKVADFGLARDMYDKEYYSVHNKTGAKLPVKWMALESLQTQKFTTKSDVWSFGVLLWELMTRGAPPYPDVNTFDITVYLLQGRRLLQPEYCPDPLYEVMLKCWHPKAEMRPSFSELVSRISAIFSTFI
READOUT_LABEL: IC50

IN: Can you share its IC50? I mean this compound: COc1cc2c(Oc3ccc(NC(=O)C(=O)NCCc4ccc(F)cc4)cc3F)ccnc2cc1OCCCN1CCOCC1
OUT: < 50 nM

###

# SYSTEM_NAME: Flt-4 (baculovirus expressed human Flt-4 kinase domain D725-R1298) (Homo sapiens, UniProt P35916)
# Sequence (P35916 725-1298 isoform P35916-1): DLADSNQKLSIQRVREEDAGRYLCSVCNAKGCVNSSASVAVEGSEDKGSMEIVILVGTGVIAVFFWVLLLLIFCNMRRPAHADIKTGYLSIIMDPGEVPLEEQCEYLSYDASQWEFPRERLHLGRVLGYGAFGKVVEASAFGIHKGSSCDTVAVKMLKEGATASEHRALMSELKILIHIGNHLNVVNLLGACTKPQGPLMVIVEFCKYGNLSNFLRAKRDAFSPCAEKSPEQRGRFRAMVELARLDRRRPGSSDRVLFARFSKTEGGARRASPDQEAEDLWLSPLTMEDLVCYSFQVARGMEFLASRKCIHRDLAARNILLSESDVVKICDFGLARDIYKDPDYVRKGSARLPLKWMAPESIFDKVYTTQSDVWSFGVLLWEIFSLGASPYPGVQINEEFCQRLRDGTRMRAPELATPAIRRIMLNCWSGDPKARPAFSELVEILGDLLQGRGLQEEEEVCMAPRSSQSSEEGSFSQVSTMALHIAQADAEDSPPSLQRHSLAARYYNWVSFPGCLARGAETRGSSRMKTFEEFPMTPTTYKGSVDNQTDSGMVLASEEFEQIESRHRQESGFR
pIC50: −log10 of the molar value.
READOUT_LABEL: pIC50

IN: Can you share its pIC50? I mean this molecule: COc1cc2c(Oc3ccc(NC(=O)C(=O)NCCc4ccc(F)cc4)cc3F)ccnc2cc1OCCCN1CCOCC1 [Entry 1]
OUT: > 7.30
